- assay details: Half life in human administered as single dose
- Format: ADME
attribute measured: half-life

[[record]]
smiles = "CCCCCCCCc1ccc(CCC(N)(CO)CO)cc1"
attribute_measured = "half-life"
result = "144 to 216 h"


====

- assay details: Oral bioavailability in cynomolgus monkey at 1 mg/kg
- Format: ADME, organism-based, Macaca fascicularis
- conditions: in vivo
attribute measured: bioavailability

[[record]]
smiles = "O=C(O)[C@H]1CCCN(C[C@@H](O)c2ccc(-c3noc(-c4onc(-c5ccccc5)c4C(F)(F)F)n3)cc2)C1"
result = "88%"

[[record]]
smiles = "O=C(O)C[C@H]1CCCN(C[C@@H](O)c2ccc(-c3noc(-c4onc(-c5ccccc5)c4C(F)(F)F)n3)cc2)C1"
result = "90%"


====

- assay details: Plasma concentration in Lewis rat at 10 mg/kg, po measured after 24 hrs
- Type: ADME, organism-based
attribute measured: concentration at 24 h

[[record]]
molecule = "CCCc1c(-c2nc(-c3ccc(C(O)CN4CCC[C@H](C(=O)O)C4)cc3)no2)noc1-c1ccccc1 (stereo partly specified)"
attribute_measured = "concentration at 24 h"
result = "38 nM"


====

- assay details: Permeability of the compound at pH 7.4 by PAMPA assay
- Type: ADME
- conditions: read-out: permeability
attribute measured: Papp (×10⁻⁶ cm/s)

[[record]]
smiles = "O=C(O)C[C@H]1CCCN(C[C@@H](O)c2ccc(-c3noc(-c4onc(-c5ccccc5)c4C(F)(F)F)n3)cc2)C1"
result = 29.5


====

- assay details: Aqueous solubility of the compound at pH 6.5
- Type: physicochemical
attribute measured: solubility (µg/mL)

[[record]]
smiles = "O=C(O)C[C@H]1CCCN(C[C@@H](O)c2ccc(-c3noc(-c4onc(-c5ccccc5)c4C(F)(F)F)n3)cc2)C1"
result = 229


====

- assay details: Tmax in dog at 1 mg/kg, iv or 1 mg/kg, po
- Type: ADME, organism-based, Canis lupus familiaris
- conditions: in vivo
attribute measured: Tmax (min)

[[record]]
smiles = "O=C(O)[C@H]1CCCN(C[C@@H](O)c2ccc(-c3noc(-c4onc(-c5ccccc5)c4C(F)(F)F)n3)cc2)C1"
result = 48


====

Below: a set of entries, each annotated with reported AUC(0-t).
- assay details: AUC (0 to 24 hrs) in cynomolgus monkey at 1 mg/kg, iv or 1 mg/kg, po
- Type: ADME, organism-based, Macaca fascicularis
- conditions: in vivo
attribute measured: AUC(0-t) (µM·h)

[[record]]
smiles = "O=C(O)C[C@H]1CCCN(C[C@@H](O)c2ccc(-c3noc(-c4onc(-c5ccccc5)c4C(F)(F)F)n3)cc2)C1"
result = 26

[[record]]
smiles = "O=C(O)[C@H]1CCCN(C[C@@H](O)c2ccc(-c3noc(-c4onc(-c5ccccc5)c4C(F)(F)F)n3)cc2)C1"
result = 17


====

Below: a set of entries, each annotated with reported Cmax.
- assay details: Cmax in mouse plasma at 1 mg/kg, iv or 1 mg/kg, po
- Assay type: ADME, organism-based
attribute measured: Cmax (µM)

[[record]]
smiles = "O=C(O)C[C@H]1CCCN(C[C@@H](O)c2ccc(-c3noc(-c4onc(-c5ccccc5)c4C(F)(F)F)n3)cc2)C1"
quantity_unit = "µM"
result = 44

[[record]]
smiles = "O=C(O)[C@H]1CCCN(C[C@@H](O)c2ccc(-c3noc(-c4onc(-c5ccccc5)c4C(F)(F)F)n3)cc2)C1"
quantity_unit = "µM"
result = 45


====

- assay details: Oral bioavailability in dog at 0.5 mg/kg
- Format: ADME, organism-based, Canis lupus familiaris
- conditions: in vivo
attribute measured: bioavailability (%)

[[record]]
smiles = "O=C(O)C[C@H]1CCCN(C[C@@H](O)c2ccc(-c3noc(-c4onc(-c5ccccc5)c4C(F)(F)F)n3)cc2)C1"
quantity_unit = "%"
result = 90


====

- assay details: Tmax in rat at 2 mg/kg, iv or 5 mg/kg, po
- Type: ADME, organism-based
- conditions: in vivo
Below: a set of entries, each annotated with reported Tmax.
attribute measured: Tmax (h)

[[record]]
smiles = "O=C(O)C[C@H]1CCCN(C[C@@H](O)c2ccc(-c3noc(-c4onc(-c5ccccc5)c4C(F)(F)F)n3)cc2)C1"
result = 3.7

[[record]]
smiles = "O=C(O)[C@H]1CCCN(C[C@@H](O)c2ccc(-c3noc(-c4onc(-c5ccccc5)c4C(F)(F)F)n3)cc2)C1"
result = 3.3


====

Below: a set of entries, each annotated with reported Cmax.
- assay details: Cmax in rat plasma at 2 mg/kg, iv or 5 mg/kg, po
- Type: ADME, organism-based
attribute measured: Cmax (µM)

[[record]]
smiles = "O=C(O)C[C@H]1CCCN(C[C@@H](O)c2ccc(-c3noc(-c4onc(-c5ccccc5)c4C(F)(F)F)n3)cc2)C1"
result = 4.7

[[record]]
smiles = "O=C(O)[C@H]1CCCN(C[C@@H](O)c2ccc(-c3noc(-c4onc(-c5ccccc5)c4C(F)(F)F)n3)cc2)C1"
result = 5.3


====

- assay details: Plasma concentration in Lewis rat at 3 mg/kg, po measured after 24 hrs
- Format: ADME, organism-based
attribute measured: concentration at 24 h (nM)

[[record]]
compound = "CCCc1c(-c2nc(-c3ccc(C(O)CN4CCC[C@H](CC(=O)O)C4)cc3)no2)noc1-c1ccccc1 (stereo partly specified)"
quantity_unit = "nM"
result = 40


====

- assay details: Oral bioavailability in mouse at 1 mg/kg
- Type: ADME, organism-based
- conditions: in vivo
Below: a set of entries, each annotated with reported bioavailability.
attribute measured: bioavailability (%)

[[record]]
smiles = "O=C(O)C[C@H]1CCCN(C[C@@H](O)c2ccc(-c3noc(-c4onc(-c5ccccc5)c4C(F)(F)F)n3)cc2)C1"
result = 62

[[record]]
smiles = "O=C(O)[C@H]1CCCN(C[C@@H](O)c2ccc(-c3noc(-c4onc(-c5ccccc5)c4C(F)(F)F)n3)cc2)C1"
result = 66


====

- assay details: Tmax in mouse at 1 mg/kg, iv or 1 mg/kg, po
- Type: ADME, organism-based
- conditions: in vivo
attribute measured: Tmax (min)

[[record]]
smiles = "O=C(O)[C@H]1CCCN(C[C@@H](O)c2ccc(-c3noc(-c4onc(-c5ccccc5)c4C(F)(F)F)n3)cc2)C1"
attribute_measured = "Tmax"
result = 60

[[record]]
smiles = "O=C(O)C[C@H]1CCCN(C[C@@H](O)c2ccc(-c3noc(-c4onc(-c5ccccc5)c4C(F)(F)F)n3)cc2)C1"
attribute_measured = "Tmax"
result = 30


====

- assay details: Tmax in cynomolgus monkey at 1 mg/kg, iv or 1 mg/kg, po
- Assay type: ADME, organism-based, Macaca fascicularis
- conditions: in vivo
attribute measured: Tmax

[[record]]
smiles = "O=C(O)[C@H]1CCCN(C[C@@H](O)c2ccc(-c3noc(-c4onc(-c5ccccc5)c4C(F)(F)F)n3)cc2)C1"
result = "4 h"

[[record]]
smiles = "O=C(O)C[C@H]1CCCN(C[C@@H](O)c2ccc(-c3noc(-c4onc(-c5ccccc5)c4C(F)(F)F)n3)cc2)C1"
result = "10 h"


====

- assay details: Tmax in dog at 0.5 mg/kg, iv or 0.5 mg/kg, po
- Type: ADME, organism-based, Canis lupus familiaris
- conditions: in vivo
attribute measured: Tmax (h)

[[record]]
smiles = "O=C(O)C[C@H]1CCCN(C[C@@H](O)c2ccc(-c3noc(-c4onc(-c5ccccc5)c4C(F)(F)F)n3)cc2)C1"
result = 4


====

- assay details: Cmax in cynomolgus monkey plasma at 1 mg/kg, iv or 1 mg/kg, po
- Format: ADME, organism-based, Macaca fascicularis
attribute measured: Cmax

[[record]]
smiles = "O=C(O)[C@H]1CCCN(C[C@@H](O)c2ccc(-c3noc(-c4onc(-c5ccccc5)c4C(F)(F)F)n3)cc2)C1"
result = "1100 nM"

[[record]]
smiles = "O=C(O)C[C@H]1CCCN(C[C@@H](O)c2ccc(-c3noc(-c4onc(-c5ccccc5)c4C(F)(F)F)n3)cc2)C1"
result = "1500 nM"


====

- assay details: AUC (0 to 24 hrs) in dog at 1 mg/kg, iv or 1 mg/kg, po
- Format: ADME, organism-based, Canis lupus familiaris
- conditions: in vivo
attribute measured: AUC(0-t) (µM·h)

[[record]]
smiles = "O=C(O)[C@H]1CCCN(C[C@@H](O)c2ccc(-c3noc(-c4onc(-c5ccccc5)c4C(F)(F)F)n3)cc2)C1"
quantity_unit = "µM·h"
result = 1.3

